Attribution: paper PMC6072100

Assay: Skin cell toxicity assay with HaCaT (alamarBlue)
Assay type: cell-based, human
Conditions: human, HaCaT cells (keratinocytes), ED50 HaCaT
Square brackets hold non-standard residues; d marks the D form. Peptide text beside a SMILES is read from it. Gly(N-(CH2)6NH2) = NCCCCCCNCC(=O)O; Nphe = O=C(O)CNCc1ccccc1; Nlys = NCCCCNCC(=O)O
// CC50 at 24 h lookup, one value per entry
Please make sure the unit comes right after the number.

COMPOUND | RESULT
COc1ccc(CN(CC(N)=O)C(=O)CN(Cc2ccc(OC)cc2)C(=O)CN(CCCCN)C(=O)CN(Cc2ccc(OC)cc2)C(=O)CN(Cc2ccc(OC)cc2)C(=O)CN(CCCCN)C(=O)CN(Cc2ccc(OC)cc2)C(=O)CN(Cc2ccc(OC)cc2)C(=O)CN(CCCCN)C(=O)CN(Cc2ccc(OC)cc2)C(=O)CN(Cc2ccc(OC)cc2)C(=O)CNCCCCN)cc1 | 41 µM
NCCCCCCNCC(=O)N(CC(=O)N(CC(=O)N(CCCCCCN)CC(=O)N(CC(=O)N(CC(=O)N(CCCCCCN)CC(=O)N(CC(=O)N(CC(=O)N(CCCCCCN)CC(=O)N(CC(=O)N(CC(N)=O)Cc1ccccc1)Cc1ccccc1)Cc1ccccc1)Cc1ccccc1)Cc1ccccc1)Cc1ccccc1)Cc1ccccc1)Cc1ccccc1 [Peptoid 1, (NahNpheNphe)4] (H-[Gly(N-(CH2)6NH2)][Nphe][Nphe][Gly(N-(CH2)6NH2)][Nphe][Nphe][Gly(N-(CH2)6NH2)][Nphe][Nphe][Gly(N-(CH2)6NH2)][Nphe][Nphe]-NH2) | 100 µM
NCCCCNCC(=O)N(CC(=O)N(CC(=O)N(CCCCN)CC(=O)N(CC(=O)N(CC(=O)N(CCCCN)CC(=O)N(CC(=O)N(CC(=O)N(CCCCN)CC(=O)N(CC(=O)N(CC(N)=O)Cc1ccccc1)Cc1ccccc1)Cc1ccccc1)Cc1ccccc1)Cc1ccccc1)Cc1ccccc1)Cc1ccccc1)Cc1ccccc1 [Peptoid 4, (NLysNpheNphe)4] (H-[Nlys][Nphe][Nphe][Nlys][Nphe][Nphe][Nlys][Nphe][Nphe][Nlys][Nphe][Nphe]-NH2) | 36 µM
NCCCCNCC(=O)N(CC(=O)N(CC(=O)N(CCCCN)CC(=O)N(CC(=O)N(CC(=O)N(CCCCN)CC(=O)N(CC(=O)N(CC(=O)N(CCCCN)CC(=O)N(CC(=O)N(CC(N)=O)Cc1cccc(F)c1)Cc1cccc(F)c1)Cc1cccc(F)c1)Cc1cccc(F)c1)Cc1cccc(F)c1)Cc1cccc(F)c1)Cc1cccc(F)c1)Cc1cccc(F)c1 | 25 µM
C[C@@H](c1ccccc1)N(CC(N)=O)C(=O)CN(C(=O)CN(CCCCN)C(=O)CN(Cc1ccc(F)cc1)C(=O)CN(Cc1ccc(F)cc1)C(=O)CN(CCCCN)C(=O)CN(C(=O)CN(C(=O)CN(CCCCN)C(=O)CN(Cc1ccc(F)cc1)C(=O)CN(Cc1ccc(F)cc1)C(=O)CNCCCCN)[C@@H](C)c1ccccc1)[C@@H](C)c1ccccc1)[C@@H](C)c1ccccc1 [Peptoid 28, [(NLysNpfbNpfb)(NLysNspeNspe)]2] | 100 µM

Please examine the following record next.
**Query** Look up CC50 at 24 h: C[C@@H](c1ccccc1)N(CC(N)=O)C(=O)CN(C(=O)CN(CCN)C(=O)CN(C(=O)CN(C(=O)CNCCN)[C@@H](C)c1ccccc1)[C@@H](C)c1ccccc1)[C@@H](C)c1ccccc1
**Result** 100 µM
